- measurement_target: Induced myeloid leukemia cell differentiation protein Mcl-1 (Homo sapiens)
- Sequence (Q07820 whole entry): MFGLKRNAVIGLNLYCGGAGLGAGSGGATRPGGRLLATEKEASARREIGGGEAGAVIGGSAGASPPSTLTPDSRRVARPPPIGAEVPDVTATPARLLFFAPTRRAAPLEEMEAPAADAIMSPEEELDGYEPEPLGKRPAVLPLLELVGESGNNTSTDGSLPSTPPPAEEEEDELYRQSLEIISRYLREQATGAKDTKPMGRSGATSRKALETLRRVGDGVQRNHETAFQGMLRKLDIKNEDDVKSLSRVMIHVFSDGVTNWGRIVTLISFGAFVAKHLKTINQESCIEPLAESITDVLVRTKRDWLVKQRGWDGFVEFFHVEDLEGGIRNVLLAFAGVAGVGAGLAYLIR
- protocol_notes: Displacement of fluorescein-labeled BID from His-tagged MCL-1 (unknown origin) at 100 uM after 1 hr by fluorescence polarization assay relative to control
Could you please report measured inhibition for the items listed next?
Express the result in % but write the number alone.

Query: Name the recorded inhibition for O=C(O)[C@@H]1C=C[C@@H]2C[C@H]3[C@H](CCCCCc4ccc(O)cc4)[C@H]4C=C[C@@H]1[C@@H]2[C@H]43 (relative stereo) .
Response: 85

Query: I have this molecule here, O=C(O)[C@@H]1C=C[C@@H]2C[C@H]3[C@H](CCCc4ccc(O)cc4)[C@H]4C=C[C@@H]1[C@@H]2[C@H]43 (relative stereo) , and I need its recorded inhibition.
Response: 0

Query: Reported inhibition, molecule O=C(O)[C@@H]1C=C[C@@H]2C[C@H]3[C@H](CCCCCCCc4ccc(O)cc4)[C@H]4C=C[C@@H]1[C@@H]2[C@H]43 (relative stereo) : ____
Response: 82

Query: Recorded inhibition for O=C(O)/C=C/[C@H]1[C@H]2C=C[C@H]3[C@@H]1C[C@H]1[C@H](CCCc4ccc(O)cc4)[C@@H]2[C@@H]31 (relative stereo) , please?
Response: 0

Query: Could you share which inhibition value was measured for O=C(O)C1=C[C@@H](O)[C@@H]2C[C@H]3[C@H](CCCc4ccc(O)cc4)[C@H]4C=C[C@@H]1[C@@H]2[C@H]43 (relative stereo) ?
Response: 0

Query: Consider the molecule O=C(O)[C@@H]1C=C[C@@H]2C[C@H]3[C@H](CCCc4ccc(O)c(O)c4)[C@H]4C=C[C@@H]1[C@@H]2[C@H]43 (relative stereo) and give its measured inhibition.
Response: 82

Query: I have this molecule here, O=C(O)C1=C[C@H](O)[C@@H]2C[C@H]3[C@H](CCCCCc4ccc(O)cc4)[C@H]4C=C[C@@H]1[C@@H]2[C@H]43 (relative stereo) , and I need its recorded inhibition.
Response: 3

Query: Reported inhibition, molecule O=C(O)[C@@H]1C=C[C@@H]2C[C@H]3[C@H](CC/C=C/Cc4ccc(O)cc4)[C@H]4C=C[C@@H]1[C@@H]2[C@H]43 (relative stereo) : ____
Response: 14

* * *

Assign inhibition to each entry below.
- measurement_target: Bcl-2-like protein 1 (Homo sapiens, UniProt Q07817)
- Sequence (Q07817 whole entry): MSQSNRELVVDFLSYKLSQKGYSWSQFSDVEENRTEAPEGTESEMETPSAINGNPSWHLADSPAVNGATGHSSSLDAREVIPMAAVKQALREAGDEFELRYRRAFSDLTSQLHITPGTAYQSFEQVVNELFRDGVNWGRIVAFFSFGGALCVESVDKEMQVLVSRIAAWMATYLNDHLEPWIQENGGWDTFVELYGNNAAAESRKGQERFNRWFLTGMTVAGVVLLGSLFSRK
- protocol_notes: Displacement of fluorescein-labeled BAK from His-tagged BCL-XL (unknown origin) at 100 uM after 1 hr by fluorescence polarization assay relative to control
Respond numerically; units are % and should not be typed.

Query: Reported inhibition for O=C(O)[C@@H]1C=C[C@@H]2C[C@H]3[C@H](CC/C=C/Cc4ccc(O)cc4)[C@H]4C=C[C@@H]1[C@@H]2[C@H]43 (relative stereo) : what is it?
Response: 20

Query: For the molecule O=C(O)[C@@H]1C=C[C@@H]2C[C@H]3[C@H](CCCCCCCc4ccc(O)cc4)[C@H]4C=C[C@@H]1[C@@H]2[C@H]43 (relative stereo) , what inhibition is on record?
Response: 93

Query: Which inhibition is reported for this molecule? O=C(O)/C=C/[C@H]1[C@H]2C=C[C@H]3[C@@H]1C[C@H]1[C@H](CCCc4ccc(O)cc4)[C@@H]2[C@@H]31 (relative stereo)
Response: 22

Query: Please report the recorded inhibition for O=C(O)[C@@H]1C=C[C@@H]2C[C@H]3[C@H](CCCCCc4ccc(O)cc4)[C@H]4C=C[C@@H]1[C@@H]2[C@H]43 (relative stereo) .
Response: 60

Query: Give its inhibition value. Item: O=C(O)[C@@H]1C=C[C@@H]2C[C@H]3[C@H](CCCc4ccc(O)c(O)c4)[C@H]4C=C[C@@H]1[C@@H]2[C@H]43 (relative stereo)
Response: 39

Query: Query (molecule): O=C(O)C1=C[C@@H](O)[C@@H]2C[C@H]3[C@H](CCCc4ccc(O)cc4)[C@H]4C=C[C@@H]1[C@@H]2[C@H]43 (relative stereo) ; field requested: inhibition
Response: 7

Query: Item under review: O=C(O)[C@@H]1C=C[C@@H]2C[C@H]3[C@H](CCCc4ccc(O)cc4)[C@H]4C=C[C@@H]1[C@@H]2[C@H]43 (relative stereo) . Reported inhibition?
Response: 22
